Experiment: Antiproliferative activity against human Skov3 NTRneo cells after 18 hrs
Type: functional, cell-based
Details: SK-OV-3, 18 h
Quick list: pIC50 per entry.
pIC50 is a log-scale quantity: -log10 of the concentration expressed in molar.

Examples from the recorded data:
compound | test-readout | reported
NC(=O)c1cc(N(CCCl)CCCl)c([N+](=O)[O-])cc1[N+](=O)[O-] | pIC50 | 5.02
COC(=O)CCNC(=O)c1cc(N(CCBr)CCBr)c([N+](=O)[O-])cc1[N+](=O)[O-] | pIC50 | 5.64
CS(=O)(=O)OCCN(CCBr)c1cc(C(N)=O)c([N+](=O)[O-])cc1[N+](=O)[O-] | pIC50 | 6.72
O=C(NO)c1cc(N(CCCl)CCCl)c([N+](=O)[O-])cc1[N+](=O)[O-] | pIC50 | 5.80
CN(C)CCNC(=O)c1cc(N(CCCl)CCCl)c([N+](=O)[O-])cc1[N+](=O)[O-] | pIC50 | 4.36
CS(=O)(=O)OCCN(CCBr)c1cc(C(=O)NO)c([N+](=O)[O-])cc1[N+](=O)[O-] | pIC50 | 5.84
O=C(NCCCCN1CCOCC1)c1cc(N(CCCl)CCCl)c([N+](=O)[O-])cc1[N+](=O)[O-] | pIC50 | 5.03
NCCNC(=O)c1cc(N(CCCl)CCCl)c([N+](=O)[O-])cc1[N+](=O)[O-] | pIC50 | 5.17

Prompt: Return reported pIC50; argument: `O=C(NCCO)c1cc(N(CCBr)CCBr)c([N+](=O)[O-])cc1[N+](=O)[O-]`
Completion: 6.52

Prompt: Cool, now `O=C(NCCCN1CCOCC1)c1cc(N(CCCl)CCCl)c([N+](=O)[O-])cc1[N+](=O)[O-]`
Completion: 4.26

Prompt: Cool, now CS(=O)(=O)OCCN(CCBr)c1cc(C(=O)NCC(O)CO)c([N+](=O)[O-])cc1[N+](=O)[O-] (stereo not drawn)
Completion: 5.77

Prompt: Cool, now `O=C(NO)c1cc(N(CCBr)CCBr)c([N+](=O)[O-])cc1[N+](=O)[O-]`
Completion: 6.51

Prompt: Cool, now `O=C(NOCCO)c1cc(N(CCCl)CCCl)c([N+](=O)[O-])cc1[N+](=O)[O-]`
Completion: 4.96

Prompt: Cool, now `CS(=O)(=O)OCCN(CCI)c1cc(C(N)=O)c([N+](=O)[O-])cc1[N+](=O)[O-]`
Completion: 6.51
